# Lookup of reported TGI keyed by entry
Tested on: SK-MEL-2 melanoma
assay_details: NCI tumour cell line growth inhibition, 48 h

compound	TGI
CCCCCCCN(CCCCCCC)CC(O)c1cc2ccccc2c2cc(Br)ccc12 (stereo not drawn)	69.9 µM
CSc1ccc(/C=C2\N=C(c3ccccc3)N(/N=C3\C(=O)Nc4ccccc43)C2=O)cc1	> 100 µM
COc1cc(NC(=O)c2ccccc2Nc2ccnc(C(F)(F)F)c2)cc(OC)c1OC	> 100 µM
CCSc1nc(-c2cccs2)nc2ccc(I)cc12	> 100 µM
COc1cc(/C=C/c2cc(O)c(C/C=C(\C)CC/C=C(\C)CO)c(O)c2)cc2c1O[C@]1(C)CC[C@@H](O)C(C)(C)[C@H]1C2	> 100 µM

// TGI value for COC(=O)NC1C(C)OC(OC2C/C=C(/C)C3C=CC4C(OC5CC(OC6CC(OC7CC(O)C(O)C(C)O7)C(OC7CC(O)C(OC)C(C)O7)C(C)O6)C(O)C(C)O5)C(C)CC(C)C4C3(C)/C(O)=C3\C(=O)OC4(CC(C)C(CO)=CC4/C=C\2C)C3=O)CC1(C)[N+](=O)[O-] (stereo not drawn) : 87.2 µM

// TGI value for COc1c(Br)cc(/C=C(\C#N)c2ccccn2)cc1Br : 41.8 µM

// TGI value for N#CC1CCCCC1NC1(C#N)CCCCC1 (stereo not drawn) : > 100 µM

====

# Lookup of reported TGI keyed by entry
Test system: HT29 colon
assay_details: NCI tumour cell line growth inhibition, 48 h

# annotated cases, reported TGI shown
molecule	TGI
CS(=O)(=O)OCCN(CCOS(C)(=O)=O)c1ccc(/C=N/Nc2ncnc3nc[nH]c23)cc1	65.9 µM
COc1ccc(/C=C2\N=C(c3ccccc3)OC2=O)cc1OC(C)=O	> 100 µM
O=C1C(Br)=CC2(C=C1Br)CCNc1c(O)c3c4c(c12)=NCCC=4C=N3	0.168 µM

// TGI value for Cc1c/c(=N/NC(=O)c2ccncc2)n2nc(N)sc2n1 : > 100 µM

// TGI value for Oc1cccc(-c2nc(-c3ccccc3)[nH]c2-c2ccncc2)c1 : > 25 µM

// TGI value for CCSc1nc(-c2cccs2)nc2ccc(I)cc12 : > 100 µM

// TGI value for CCCCC(C(=O)CCC(=O)Nc1ccc(Cl)cc1)C(=O)C(C)C (stereo not given) : > 100 µM

// TGI value for CC/C(=N/N=C(N)N)c1ccc(NC(=O)Nc2ccc(/C(CC)=N/N=C(N)N)cc2)cc1 : 28.1 µM

// TGI value for Clc1ccc(-c2nc3ccc4ccccc4c3c3c2CCCC3)cc1 : > 100 µM

// TGI value for COC(=O)C1(O)c2ccccc2N=C2C1CCN2C (stereo not given) : > 100 µM

// TGI value for N=C(N)SCc1cccc([N+](=O)[O-])c1 : 85.1 µM

// TGI value for Fc1ccc(C2C3CCOc4c(ccc5ccccc45)C3=NN2c2ccccc2)cc1 (stereo not given) : > 100 µM

// TGI value for Fc1ccc(-c2nn3c(COc4ccc(Cl)cc4Cl)nnc3s2)cc1Oc1ccccc1 : 34.8 µM

// TGI value for C=C(CO)[C@H]1Oc2ccc(C(C)=O)cc2[C@@H]1O : > 100 µM

// TGI value for Cc1c(N=Nc2ccc(Cl)cc2)c(C)n(C2OC(CO)C(O)C(O)C2O)c(=S)c1C#N (stereo not given) : > 100 µM

// TGI value for Oc1ccc(-c2nc3cc(F)ccc3s2)cc1 : 56.7 µM
